# studySystem: human CD40 on cells (human, UniProt P25942 21-277)
# Sequence (P25942 21-277 limits assumed): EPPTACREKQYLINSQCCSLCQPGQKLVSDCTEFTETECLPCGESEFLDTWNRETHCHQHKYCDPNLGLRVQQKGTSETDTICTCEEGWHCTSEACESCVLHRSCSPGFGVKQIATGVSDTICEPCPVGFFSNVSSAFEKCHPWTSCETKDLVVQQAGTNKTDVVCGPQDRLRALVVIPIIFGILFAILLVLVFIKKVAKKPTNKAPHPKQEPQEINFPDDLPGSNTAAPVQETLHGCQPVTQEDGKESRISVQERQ
# assayName: cell-based or functional assay
parameter: human B cell proliferation, with protein G crosslinking, EC50 (nM)
Number in nM, nothing else.

Quick one: human B cell proliferation, with protein G crosslinking, EC50 for 30A12 (antibody, IgG4, V domains shown, also called 4878-1) VH: EVQLLESGGGLVQPGGSLRLSCAASGFTFSRNAMSWVRQAPGKGLEWVSATGGSGISTYYADSVKGRFTISRDNSKNTLYLQMNSLRAEDTAVYYCARGYSNSWWYFDYWGQGTLVTVSS VL: QSALTQPASVSGSPGQSITISCTGTSSDVGNYNLVSWYQQHPGKAPKLMIFEVNQRPSGVSNRFSGSKSGTTASLTISGLQAADEADYFCCSYTTSSTYVIFGGGTKLTVLG ?
0.362
